# Tested on: EPHHL Euphorbia heterophylla
# Assay Details: Post-emergence crop and weed test (Example 15)
# Format: in vivo
# Condition Context: 360 h, 125 g/ha, after 15 days, read-out: Percentage damage EPHHL
Property: pest or weed control at 125 g/ha (%)

[[record]]
compound = "C/C=C/c1c(N)nc(C2CC2)nc1C(=O)OC [Ref. Ex. D, reference compound]"
quantitative_readout = 80

[[record]]
compound = "C/C=C/c1c(N)nc(-c2ccc(Cl)c(OC)c2F)nc1C(=O)OC [Compound 3]"
quantitative_readout = 90

[[record]]
compound = "COC(=O)c1nc(-c2ccc(Cl)c(OC)c2F)nc(NCc2ccco2)c1Cl [Ref. Ex. E, reference compound]"
quantitative_readout = 100

[[record]]
compound = "C=Cc1c(NCc2ccco2)nc(C2CC2)nc1C(=O)OC [Ref. Ex. F, reference compound]"
quantitative_readout = 80

[[record]]
compound = "C=Cc1c(NCc2ccco2)nc(-c2ccc(Cl)c(OC)c2F)nc1C(=O)OC [Compound 6]"
quantitative_readout = 90

[[record]]
compound = "C=Cc1c(N)nc(-c2ccc(Cl)c(F)c2)nc1C(=O)OC [Compound 9]"
quantitative_readout = 80

